src = patent US5728563A

# Test system: cyclic nucleotide phosphodiesterase (the enzyme of the present invention) isolated from rat cerebral cortex
# test: Effects of inhibitors on the enzymatic activity (two-step assay, cAMP hydrolysis)
# Assay type: biochemical
# cond: comparison with the known isozyme that the inhibitor acts on
reported endpoint: inhibition compared to PDEI, PDEIII or PDEIV

Consider the following illustrative entries.
CC(=O)Nc1ccc(-c2c[nH]c(=O)cn2)cc1 [SK&F94120, 5-(4-acetamidophenyl)pyrazin-1H-one] | not inhibited
COc1ccc(C2CNC(=O)C2)cc1OC1CCCC1 (centres unmarked) [rolipram] | less inhibited
O=C1CCc2cc(OCCCCc3nnnn3C3CCCCC3)ccc2N1 [cilostazol] | not inhibited
CCCCOc1cc(CC2CNC(=O)N2)ccc1OC (centres unmarked) [Ro20-1724] | less inhibited

### Prompt What does the data say about its inhibition compared to PDEI, PDEIII or PDEIV? Entry: COC(=O)C1=C(C)NC(C)=C(C(=O)OCCN(C)Cc2ccccc2)C1c1cccc([N+](=O)[O-])c1 (centres unmarked) [nicardipine]
### Response less inhibited

====

# subject of test: cyclic nucleotide phosphodiesterase (the enzyme of the present invention) isolated from rat cerebral cortex
# test: Effects of inhibitors on the enzymatic activity (two-step assay, cAMP hydrolysis)
# Assay type: biochemical
# cond: unit inferred; enzymatic activity in the absence of inhibitor made 100%
reported endpoint: IC50

### Prompt What does the data say about its IC50? Entry: COC(=O)C1=C(C)NC(C)=C(C(=O)OCCN(C)Cc2ccccc2)C1c1cccc([N+](=O)[O-])c1 (stereo not shown)
### Response > 300 µM
